target: hMC4-R (Homo sapiens (Human)); test: High and low density hMC4-R functional assay (cAMP, HEK293-T-REx-MC4-R cells); format: cell-based; conditions: 0.1 ng/mL Doxycycline (low density hMC4-R system); NDP-α-MSH = 100%; read-out: Intrinsic Activity (%)
attributeMeasured: Emax (%)

INSERT INTO results (molsmiles, datavalue) VALUES
  ('CC(=O)N[C@@H](CCCNC(=N)N)C(=O)N[C@H]1CCC(=O)NCCC[C@@H](C(N)=O)NC(=O)[C@H](Cc2c[nH]c3ccccc23)NC(=O)[C@H](CCCNC(=N)N)NC(=O)[C@@H](Cc2ccc(F)cc2)NC(=O)[C@@H]2CCCN2C1=O', 38);

a = CC(=O)N[C@H](CCCNC(=N)N)C(=O)N[C@H]1CCCNC(=O)CC[C@@H](C(N)=O)NC(=O)[C@H](Cc2c[nH]c3ccccc23)NC(=O)[C@H](CCCNC(=N)N)NC(=O)[C@@H](Cc2ccccc2F)NC(=O)[C@H](Cc2c[nH]cn2)NC1=O
b = CC(=O)N[C@@H](CCCNC(=N)N)C(=O)N[C@H]1CCC(=O)NCCC[C@@H](C(N)=O)NC(=O)[C@H](Cc2c[nH]c3ccccc23)NC(=O)[C@H](CCCNC(=N)N)NC(=O)[C@@H](Cc2ccc(Cl)c(Cl)c2)NC(=O)[C@H](CCN)NC1=O
Would you kindly point out which of a and b has the smaller Emax figure? # reply format: chosen label b
(b: 5%, a: 86%)

---

target: hMC4-R (Homo sapiens (Human), UniProt P32245); assay: High and low density hMC4-R functional assay (cAMP, HEK293-T-REx-MC4-R cells); assay type: cell-based; settings: 10 ng/mL Doxycycline (high density hMC4-R system); NDP-α-MSH = 100%; read-out: Intrinsic Activity (%)
Sequence (P32245 whole entry): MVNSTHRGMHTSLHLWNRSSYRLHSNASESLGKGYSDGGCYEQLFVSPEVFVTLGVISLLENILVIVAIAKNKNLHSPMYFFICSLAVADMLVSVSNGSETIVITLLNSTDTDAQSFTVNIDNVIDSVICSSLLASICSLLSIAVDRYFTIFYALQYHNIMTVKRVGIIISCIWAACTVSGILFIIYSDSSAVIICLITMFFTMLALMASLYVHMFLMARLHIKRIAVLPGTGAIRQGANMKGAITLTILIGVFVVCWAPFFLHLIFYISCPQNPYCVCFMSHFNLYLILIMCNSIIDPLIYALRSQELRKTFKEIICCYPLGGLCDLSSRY
attributeMeasured: Emax (%)

INSERT INTO results (compound, unitstring, datavalue) VALUES
  ('CC(=O)N[C@@H](CCCNC(=N)N)C(=O)N[C@H]1CCC(=O)NCCC[C@@H](C(N)=O)NC(=O)[C@H](Cc2c[nH]c3ccccc23)NC(=O)[C@H](CCCNC(=N)N)NC(=O)[C@@H](Cc2ccc(F)cc2)NC(=O)[C@H](CO)NC1=O [Example 65]', '%', 93),
  ('CC(=O)N[C@@H](CCCNC(=N)N)C(=O)N[C@H]1CCCNC(=O)CC[C@@H](C(N)=O)NC(=O)[C@H](Cc2c[nH]c3ccccc23)NC(=O)[C@H](CCCNC(=N)N)NC(=O)[C@@H](Cc2ccccc2F)NC(=O)[C@H](CC(N)=O)NC1=O [Example 71]', '%', 91),
  ('CC(=O)N[C@@H](CCCNC(=N)N)C(=O)N[C@H]1CCC(=O)NCCC[C@@H](C(N)=O)NC(=O)[C@H](Cc2c[nH]c3ccccc23)NC(=O)[C@H](CCCNC(=N)N)NC(=O)[C@@H](Cc2cccc(C(F)(F)F)c2)NC(=O)[C@H](CCN)NC1=O [Example 14]', '%', 93),
  ('CC(=O)N[C@@H](CCCNC(=N)N)C(=O)N[C@H]1CCC(=O)NCCC[C@@H](C(N)=O)NC(=O)[C@H](Cc2c[nH]c3ccccc23)NC(=O)[C@H](CCCNC(=N)N)NC(=O)[C@@H](Cc2ccccc2F)NC(=O)[C@@H]2C[C@@H](O)CN2C1=O [Example 64]', '%', 90);

---

Target: hMC4-R (Homo sapiens (Human))
Assay: High and low density hMC4-R functional assay (cAMP, HEK293-T-REx-MC4-R cells)
Assay type: cell-based
Conditions: 0.1 ng/mL Doxycycline (low density hMC4-R system); NDP-α-MSH = 100%; read-out: Intrinsic Activity (%)
Description: The cells were then dispensed into 96-well plates (BD 353916) in 198 μL (about 5×10^4) cells/well and incubated for 10 minutes at 37° C. The compound to be tested was diluted with DMSO to a final concentration of 1 mM. […] 120 μL of the 1 mM compound stock was pipetted in the second column on the plate. […] All assay samples were run in duplicate (i.e. each sample was in two low dox and two high dox plates, respectively). The plates were gently shaken and incubated for 15 minutes at 37° C.
attributeMeasured: Emax (%)

1 = CC(=O)N[C@@H](CCCNC(=N)N)C(=O)N[C@H]1CCC(=O)NCCC[C@@H](C(N)=O)NC(=O)[C@H](Cc2c[nH]c3ccccc23)NC(=O)[C@H](CCCNC(=N)N)NC(=O)[C@@H](Cc2cccc(C)c2)NC(=O)[C@H](CCN)NC1=O
2 = CC(=O)N[C@@H](CCCNC(=N)N)C(=O)N[C@H]1CCC(=O)NCCC[C@@H](C(N)=O)NC(=O)[C@H](Cc2c[nH]c3ccccc23)NC(=O)[C@H](CCCNC(=N)N)NC(=O)[C@@H](Cc2cccc(F)c2)NC(=O)[C@H](CCN)NC1=O
Kindly identify the item with the lower Emax figure among these two: 1 and 2 Answer = label. 1
(1: 35%, 2: 77%)

---

molecular target: UniProtKB P32245; experiment: High and low density hMC4-R functional assay (cAMP, HEK293-T-REx-MC4-R cells); format: cell-based; conditions: 10 ng/mL Doxycycline (high density hMC4-R system)
pEC50: −log10 of the molar value.
attributeMeasured: pEC50

A = CC(=O)N[C@@H](CCCNC(=N)N)C(=O)N[C@H]1CCC(=O)NCCC[C@@H](C(N)=O)NC(=O)[C@H](Cc2c[nH]c3ccccc23)NC(=O)[C@H](CCCNC(=N)N)NC(=O)[C@@H](Cc2ccccc2[N+](=O)[O-])NC(=O)[C@H](CCN)NC1=O
B = CC(=O)N[C@@H](CCCNC(=N)N)C(=O)N[C@H]1CCC(=O)NCCC[C@@H](C(N)=O)NC(=O)[C@H](Cc2c[nH]c3ccccc23)NC(=O)[C@H](CCCNC(=N)N)NC(=O)[C@@H](Cc2ccc(N)cc2)NC(=O)[C@H](CCN)NC1=O
C = CC(=O)N[C@@H](CCCNC(=N)N)C(=O)N[C@H]1CCC(=O)NCCC[C@@H](C(N)=O)NC(=O)[C@H](Cc2c[nH]c3ccccc23)NC(=O)[C@H](CCCNC(=N)N)NC(=O)[C@@H](Cc2ccccc2Cl)NC(=O)[C@H](Cc2cccc(C(N)=O)c2)NC1=O
I'd appreciate it if you sorted the entries above by their pEC50, lowest to highest. Reply with the labels, ordered as the question asks. C, B, A

---

molecular target: hMC4-R (Homo sapiens (Human), UniProt P32245); assay: High and low density hMC4-R functional assay (cAMP, HEK293-T-REx-MC4-R cells); assay type: cell-based; conditions: 10 ng/mL Doxycycline (high density hMC4-R system); NDP-α-MSH = 100%; read-out: Intrinsic Activity (%)
Positions of bridges follow the written chain, without caps; N, C: chain ends. Non-standard residues stand in square brackets, D forms with d. Residues, ends and D or L forms follow the SMILES beside them. dPhe(4-CN) = N#Cc1ccc(C[C@@H](N)C(=O)O)cc1
attributeMeasured: Emax (%)

INSERT INTO assay_data (compound, datavalue) VALUES
  ('CC(=O)N[C@@H](CCCNC(=N)N)C(=O)N[C@H]1CCC(=O)NCCC[C@@H](C(=O)O)NC(=O)[C@H](Cc2c[nH]c3ccccc23)NC(=O)[C@H](CCCNC(=N)N)NC(=O)[C@@H](Cc2cccc(Cl)c2)NC(=O)[C@H](CCCN)NC1=O', 98),
  ('CC(=O)N[C@@H](CCCNC(=N)N)C(=O)N[C@H]1CCC(=O)NCCC[C@@H](C(N)=O)NC(=O)[C@H](Cc2c[nH]c3ccccc23)NC(=O)[C@H](CCCNC(=N)N)NC(=O)[C@@H](Cc2ccc(C)cc2C)NC(=O)[C@H](CCN)NC1=O', 97),
  ('CC(=O)N[C@@H](CCCNC(=N)N)C(=O)N[C@H]1CCC(=O)NCCC[C@@H](C(N)=O)NC(=O)[C@H](Cc2c[nH]c3ccccc23)NC(=O)[C@H](CCCNC(=N)N)NC(=O)[C@@H](Cc2ccc(C#N)cc2)NC(=O)[C@H](CO)NC1=O', 87),
  ('CC(=O)N[C@@H](CCCNC(=N)N)C(=O)N[C@H]1CCC(=O)NCCC[C@@H](C(N)=O)NC(=O)[C@H](Cc2c[nH]c3ccccc23)NC(=O)[C@H](CCCNC(=N)N)NC(=O)[C@@H](Cc2cc(F)cc(F)c2)NC(=O)[C@H](CC(N)=O)NC1=O', 85),
  ('CC(=O)N[C@@H](CCCNC(=N)N)C(=O)N[C@H]1CCC(=O)NCCC[C@@H](C(N)=O)NC(=O)[C@H](Cc2c[nH]c3ccccc23)NC(=O)[C@H](CCCNC(=N)N)NC(=O)[C@@H](Cc2ccccc2F)NC(=O)[C@H](CO)NC1=O', 100),
  ('CC(=O)N[C@@H](CCCNC(=N)N)C(=O)N[C@H]1CCC(=O)NCCC[C@@H](C(N)=O)NC(=O)[C@H](Cc2c[nH]c3ccccc23)NC(=O)[C@H](CCCNC(=N)N)NC(=O)[C@@H](Cc2ccc(C#N)cc2)NC(=O)[C@H](C(C)C)NC1=O', 84),
  ('CC(=O)N[C@@H](CCCNC(=N)N)C(=O)N[C@H]1CCCCNC(=O)C[C@@H](C(N)=O)NC(=O)[C@H](Cc2c[nH]c3ccccc23)NC(=O)[C@H](CCCNC(=N)N)NC(=O)[C@@H](Cc2ccc(C#N)cc2)NC(=O)[C@H](CCC(N)=O)NC1=O [Example 93] (Ac-RKQ[dPhe(4-CN)]RWD-NH2; lactam 2-7)', 97),
  ('CC(=O)N[C@@H](CCCNC(=N)N)C(=O)N[C@H]1CCC(=O)NCCC[C@@H](C(N)=O)NC(=O)[C@H](Cc2c[nH]c3ccccc23)NC(=O)[C@H](CCCNC(=N)N)NC(=O)[C@@H](Cc2ccccc2C)NC(=O)[C@H](CCN)NC1=O', 97);
